- methodSummary: HepG2 liver cancer cell viability effects, profiling panel, resazurin fluorescence, 24 h, PK04 Diversity Set (AID 1172); note: test concentration not given here
- measurementContext: higher = more signal
The label depends only on z-score: criterion met if it is at least 0.2, criterion not met if it is smaller.

Example cases with answers are listed next.
compound | cat
COc1ccc(C(=O)Nc2ccc(CN3C(=O)[C@]4(O[C@H](CCO)[C@@H]([Si](C)(C)c5ccc(OC)cc5)[C@@H]4C)c4ccccc43)cc2)cc1 | criterion not met
C=C(/C(=C/C[C@H](OC(C)=O)c1ccccc1OCCO)c1cnc2ccccc2c1)C(C)C | criterion not met
CC(C)C[C@@H]1NC(=O)[C@H](C(C)C)NC(=O)[C@@]23C(=O)N[C@@H](Cc4ccccc4)C2[C@H](C)[C@@]2(C)O[C@H]2C3/C=C/CC/C=C/CNC1=O (stereo not given in full) | criterion met
C=CCOC(=O)[C@H]1[C@@H]2C(=O)O[C@@H](c3ccccc3)[C@@H](c3ccccc3)N2[C@@H](c2ccc(OCCOC(=O)[C@H]3C[C@H]4C(=O)N[C@@H](CCCCNC(C)=O)C(=O)N4[C@H]3c3ccc(O)cc3)cc2)[C@]12C(=O)Nc1ccc(I)cc12 | criterion met

Could you now look at the following compound, please?
Quick check, z-score >= 0.2? `CCOC(=O)C[C@H]1[C@H](OC(=O)c2ccc(C(=O)c3ccccc3)cc2)[C@@H](NC(=O)c2ccccc2)c2cc(OCCCO)ccc2N1C(=O)c1ccc2ccccc2n1`
criterion not met
